SUBJECT_OF_TEST: PD-L1 (Homo sapiens (Human), UniProt Q9NZQ7)
Sequence (Q9NZQ7 19-290): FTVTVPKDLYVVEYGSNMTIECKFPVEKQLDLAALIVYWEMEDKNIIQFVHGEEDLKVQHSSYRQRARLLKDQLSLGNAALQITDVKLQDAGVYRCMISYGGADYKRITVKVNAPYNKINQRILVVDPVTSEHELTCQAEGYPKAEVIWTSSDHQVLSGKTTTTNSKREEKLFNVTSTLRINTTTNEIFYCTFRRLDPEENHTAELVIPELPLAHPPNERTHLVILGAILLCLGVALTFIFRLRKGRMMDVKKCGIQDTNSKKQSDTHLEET
METHOD_SUMMARY: PD-L1 surface levels on HEK293T STING reporter cells, high PD-L1
Type: cell-based
pIC50: −log10 of the molar value.
Measured pIC50 accompanies every entry in the list below.

CCn1nc(C)cc1C(=O)Nc1nc2cc(C(N)=O)cc(OCCCNC(=O)CCNC(=O)OCc3ccc(NC(=O)[C@H](CCCNC(N)=O)NC(=O)[C@@H](NC(=O)Cn4cc(CCNC(=O)[C@H](CC(=O)O)NC(=O)[C@H](CC(=O)O)NC(=O)[C@H](CCCNC(=N)N)NC(=O)[C@H](CC(=O)O)NC(=O)CCCN5CCc6c(nc(C(=O)Nc7cccc(-c8cccc(NC(=O)c9nc%10c(n9C)CCN(CCCC(=O)O)C%10)c8Cl)c7Cl)n6C)C5)nn4)C(C)C)cc3)c2n1C/C=C/Cn1c2nc(-c3cc(C)nn3CC)ncc2c2cc(C(N)=O)cc(OC)c21 [Example 9] ... 6.70 to 7.30

Give the measured pIC50 of CCn1nc(C)cc1C(=O)Nc1nc2cc(C(N)=O)cc(OC)c2n1C/C=C/Cn1c(NC(=O)c2cc(C)nn2CC)nc2cc(C(N)=O)cc(OCCCNC(=O)[C@H](CC(=O)O)NC(=O)[C@H](CC(=O)O)NC(=O)[C@H](CC(=O)O)NC(=O)[C@H](CCCNC(=N)N)NC(=O)CCCN3CCc4c(nc(C(=O)Nc5cccc(-c6cccc(NC(=O)c7nc8c(n7C)CCN(CCCC(=O)O)C8)c6Cl)c5Cl)n4C)C3)c21 [Example 17] .
> 7.30

Let us now turn to CCn1nc(C)cc1C(=O)Nc1nc2cc(C(N)=O)cc(OCCCNC(=O)[C@H](CC(=O)O)NC(=O)[C@H](CC(=O)O)NC(=O)[C@H](CCCNC(=N)N)NC(=O)[C@H](CC(=O)O)NC(=O)[C@H](CC(=O)O)NC(=O)[C@H](CC(=O)O)NC(=O)[C@H](CCCNC(=N)N)NC(=O)[C@H](CC(=O)O)NC(=O)CCCN3CCc4c(nc(C(=O)Nc5cccc(-c6cccc(NC(=O)c7nc8c(n7C)CCN(CCCC(=O)O)C8)c6Cl)c5Cl)n4C)C3)c2n1C/C=C/Cn1c2nc(-c3cc(C)nn3CC)ncc2c2cc(C(N)=O)cc(OC)c21 [Example 22]
> 7.30

Let us now turn to CCn1nc(C)cc1C(=O)Nc1nc2cc(C(N)=O)cc(OC)c2n1C/C=C/Cn1c(NC(=O)c2cc(C)nn2CC)nc2cc(C(N)=O)cc(OCCCNC(=O)[C@H](CCC(=O)O)NC(=O)[C@H](CCC(=O)O)NC(=O)[C@H](CCCNC(=N)N)NC(=O)[C@H](CCC(=O)O)NC(=O)CCCN3CCc4c(nc(C(=O)Nc5cccc(-c6cccc(NC(=O)c7nc8c(n7C)CCN(CCCC(=O)O)C8)c6Cl)c5Cl)n4C)C3)c21 [Example 19]
> 7.30

Let us now turn to CCn1nc(C)cc1C(=O)Nc1nc2cc(C(N)=O)cc(OCCCNC(=O)[C@H](CC(=O)O)NC(=O)[C@H](CC(=O)O)NC(=O)[C@H](CCCNC(=N)N)NC(=O)[C@H](CC(=O)O)NC(=O)CCCN3CCc4c(nc(C(=O)Nc5cccc(-c6cccc(NC(=O)c7nc8c(n7C)CCN(CCCC(=O)O)C8)c6Cl)c5Cl)n4C)C3)c2n1C/C=C/Cn1c2nc(-c3cc(C)nn3CC)ncc2c2cc(C(N)=O)cc(OC)c21 [Example 7]
> 7.30
